# ASSAY NOTES: ATG_BRE_CIS: Attagene CIS-FACTORIAL HepG2 Assay for human Bone Morphogenetic Protein (BMP) Response Element (BRE) (AID 2282933)
# TEST PARAMETERS: HepG2 BMP response element reporter, Attagene transcription factor profiling; actives raise or lower the signal
# Procedure: ATG_CIS is a cell-based, multiplexed-readout assay that uses HepG2, a human liver cell line, with measurements taken at 24 hours after chemical dosing in a 24-well plate.ATG_BRE_CIS is one of 52 assay component(s) measured or calculated from the ATG_CIS assay. […] This assay endpoint, ATG_BRE_CIS, was analyzed with bidirectional fitting relative to DMSO as the negative control and baseline of activity. […]
Active and inactive are the calls of the source. How the source made its calls: active means hit-call score of the fitted dose curve at least 0.9, where 1 is the maximum; inactive means score below 0.9.
The categories you may choose from are t = active, f = inactive

Reference set (4 entries):
{"COMPOUND": "CCCC(=O)C(CC)Sc1ccoc1C (stereo not drawn)", "LABEL VALUE": "f"}
{"COMPOUND": "Cc1ccc(-c2ccccc2)cc1", "LABEL VALUE": "f"}
{"COMPOUND": "CC(C)(C)CC(C)(C)c1ccc(OCCOCC[N+](C)(C)Cc2ccccc2)cc1", "LABEL VALUE": "f"}
{"COMPOUND": "CC(C)(C)c1ccc(C(=O)O)cc1", "LABEL VALUE": "f"}

Given `CCCCCCCCc1ccc(S(=O)(=O)O)cc1` , state the outcome it received in this test.
f

Given `O=C1OC(=O)c2c(Br)c(Br)c(Br)c(Br)c21` , state the outcome it received in this test.
f

Given C=C(C)C(=O)OCCOC1CC2CC1C1C=CCC21 (stereo not drawn) , state the outcome it received in this test.
f

Given `CC(C)C[C@H](NC(=O)OCC1c2ccccc2-c2ccccc21)C(=O)O` , state the outcome it received in this test.
f

Given `CCOC(=O)C(C#N)=C(c1ccccc1)c1ccccc1` , state the outcome it received in this test.
t

Given `CCCCOC(=O)CCCCCCCC(=O)OCCCC` , state the outcome it received in this test.
f

Given `COc1ccccc1[N+](=O)[O-]` , state the outcome it received in this test.
f

Given `CCN(CC)C(=O)N(CC)CC` , state the outcome it received in this test.
f

Given `OCCOCCN1CCN(C2=Nc3ccccc3Sc3ccccc32)CC1` , state the outcome it received in this test.
f

* * *

# EXPERIMENTAL SYSTEM: Retinoic acid receptor RXR-alpha (Homo sapiens) (UniProt P19793)
# Sequence (P19793 whole entry, looked up): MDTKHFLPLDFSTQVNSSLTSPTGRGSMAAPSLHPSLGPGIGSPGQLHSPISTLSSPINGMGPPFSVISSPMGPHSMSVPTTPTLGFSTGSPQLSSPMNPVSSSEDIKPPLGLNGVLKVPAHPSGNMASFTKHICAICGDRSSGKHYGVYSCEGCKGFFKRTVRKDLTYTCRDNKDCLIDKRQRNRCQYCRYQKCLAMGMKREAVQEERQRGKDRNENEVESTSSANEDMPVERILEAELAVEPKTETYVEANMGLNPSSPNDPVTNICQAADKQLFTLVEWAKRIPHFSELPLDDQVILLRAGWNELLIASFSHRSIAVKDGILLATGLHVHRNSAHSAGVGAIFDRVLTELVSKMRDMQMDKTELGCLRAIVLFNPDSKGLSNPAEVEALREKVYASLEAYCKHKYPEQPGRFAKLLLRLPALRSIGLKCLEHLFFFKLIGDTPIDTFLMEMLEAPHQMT
# ASSAY NOTES: ATG_RXRa_TRANS: Attagene TRANS-FACTORIAL HepG2 Assay for human Retinoid X Receptor alpha (RXRa) (AID 2283012)
Results filed as inconclusive are left out. Calls of active or inactive are those of the source. The calls were made as follows: active = hit-call score of the fitted dose curve at least 0.9, where 1 is the maximum; inconclusive = response in the unintended direction; inactive = score below 0.9.
ENDPOINT LABEL: outcome

Check out these entries, answers already filled in.
{"MOLECULE": "CCCN(CCC)S(=O)(=O)c1ccc(C(=O)O)cc1", "outcome": "inactive"}
{"MOLECULE": "CC(=O)C1(C)CC2=C(CCCC2(C)C)CC1C (stereo not drawn)", "outcome": "inactive"}
{"MOLECULE": "CCCCCCOCCOCCO", "outcome": "inactive"}
{"MOLECULE": "CCCCSCCCC", "outcome": "inactive"}
{"MOLECULE": "COC(=O)c1ccc(OC)cc1", "outcome": "inactive"}

Complete the entry with outcome for `CCCCCCCC(=O)OCCCCCC`
inactive

Complete the entry with outcome for `CCCCC(CC)(CO)CO`
inactive

Complete the entry with outcome for `CCCCOC(=O)CCCCCCCC(=O)OCCCC`
inactive

Complete the entry with outcome for `CC1(C)O[C@@H]2C[C@H]3[C@@H]4CCC5=CC(=O)C=C[C@]5(C)[C@@]4(F)[C@@H](O)C[C@]3(C)[C@]2(C(=O)CO)O1`
inactive
